biological target: SARS-CoV-2 full length spike protein, V367F mutant (SARS-CoV-2, UniProt P0DTC2 14-1273)
Decide by median fluorescence intensity, fold over isotype control: equal to or exceeding 30 fold over isotype means MET, less means NOT MET.

BINDER | LABEL
antibody 308 (antibody, V domains shown) VH: QLQLQESGPGLVKPSETLSLTCSVSGGSISSSSYHWGWIRQPPGKGLEWIGSIYYSGSTYYNPSLKSRVTISVDTSKNQFSLKLRSVTAADTAVYYCAGLRVVITFGGVIPKGGAFDIWGQGTMVTVSS VL: QSALTQPASVSGSPGQSITISCTGTSSDVGGYNYVSWYQQHPGKAPKLMIYDVSNRPSGVSNRFSGSKSGNTASLTISGLQAEDEADYYCSSYTSSSTVVFGGGTKLTVL | MET
antibody 305 (antibody, V domains shown) VH: QVQLVESGGGVVQPGRSLRLSCAASGFTFSSYAMHWVRQAPGKGLEWVAVISYDGSNKYYADSVKGRFTISRDNSKNTLYLQMNSLRAEDTAVYYCAREQTSYDYVWGTLGAYYYYGMDVWGQGTTVTVSS VL: SSELTQDPAVSVALGQTVRITCQGDSLRSYYASWYQQKPGQAPVLVIYGKNNRPSGIPDRFSGSSSGNTASLTITGAQAEDEADYYCNSRDSSGNHLVFGGGTKLTVL | MET
antibody 261 (antibody, V domains shown) VH: QVQLVESGGGVVQPGRSLRLSCAASGFTFSSYAMHWVRQAPGKGLEWVAVISYDGSNKYYADSVKGRFTISRDNSKNTLYLQMNSLRAEDTAVYYCARDEAYYDILTGYINAPKNYYYYGMDVWGQGTTVTVSS VL: DIQMTQSPSSLSASVGDRVTITCRASQGIRNDLGWYQQKPGKAPKRLIYAASSLQSGVPSRFSGSGSGTEFTLTISSLQPEDFATYYCLQHNSYPFTFGPGTKVDIK | MET
antibody 272 (antibody, V domains shown) VH: QVQLVQSGAEVKKPGASVKVSCKASGYTFTTYYMHWVRQAPGQGLEWMGIINPSGGSASYAQKFQGRVTMTRDTSTSTVYMELSSLRSEDTAVYYCARDHTLVNGDYEYYYGMDVWGQGTTVTVSS VL: SYELTQPPSVSVSPGQTARITCSGDALPKQYAYWYQQKPGQAPVSVIYKDSERPSGIPERISGSSSGTTVTLTISGVQAEDEADYYCQSADSSGTYLVFGGGTKLTVL | MET
antibody 268 (antibody, V domains shown) VH: QVQLQESGPGLVKPSQTLSLTCTVSGGSISSGSYYWSWIRQPAGKGLEWIGRIYTSGSTNYNPSLKSRVTISVDTSKNQFSLKLSSVTAADTAVYYCARELVGGLLGTIDYWGQGTLVTVSS VL: DIQLTQSPSFLSASVGDRVTITCRASQGISSYLAWYQQKPGKAPKLLIYAASTLQSGVPSRFSGSGSGTEFTLTISSLQPEDFATYYCQQLNSYPYTFGQGTKLEIK | NOT MET
antibody 286 (antibody, V domains shown) VH: QVHLVESGGGVVQPGKSLRLSCAGSGFIFSDFGMHWVRQSPGKGLEWVAVVSYDGSVTKYSDSFEGRFTISRDNSKNTLYLQMDSLRPDDTAIYYCAKGQGANLLHYWGKGILVTVSS VL: DVVLTQSPLSLPVTLGQPASISCRSSESLVYTDGDTYLHWFHQRPGQSPRRLIYKVSNRDSGVPDRFSGSGSGTDFTLKISRVEAEDVGVYYCMQGTHWPFTFGPGTKVDIK | NOT MET
